# EXPERIMENT_NOTES: High Throughput Screening for Foot and Mouth Disease Virus Antivirals; also: read-out not given here; nearly all actives have a fitted effect of over 45% in size
# CONDITION_PARAMETERS: FMDV antiviral cell-based qHTS; series mostly up to 57.9 µM
About 5,100 (1.2%) of roughly 410,000 compounds were called active. Roughly 8% stayed inconclusive and do not appear here. Calls follow the shape of the full dose curve; tested in HEK293T cells. For the sample, actives were picked, then their nearest neighbours and some compounds at random.
I would appreciate it if you answered using one of these outcomes: active, inactive

[
  {
    "COMPOUND": "COc1ccccc1N1CCN(C[C@@H]2CN3C(=O)N(C)c4ccccc4C3=N2)CC1",
    "LABEL_CLASS": "inactive"
  },
  {
    "COMPOUND": "CC(=O)Nc1ccc(S(=O)(=O)N2CCN(c3ccccc3)CC2)cc1",
    "LABEL_CLASS": "inactive"
  },
  {
    "COMPOUND": "Cn1c(=O)c([N+](=O)[O-])c(Oc2ccccc2)c2ccccc21",
    "LABEL_CLASS": "active"
  },
  {
    "COMPOUND": "Cn1nccc1C(=O)NCC1CCC2(CCN(Cc3c(O)ccc4ccccc34)CC2)O1 (stereo not given)",
    "LABEL_CLASS": "inactive"
  }
]

Continue with the compound presented below.
Q: Outcome logged for CC(=O)Nc1ccc(S(=O)(=O)N2CCN(CCCOc3cc(C)ccc3C)CC2)cc1 in this assay:
Ans: active

----------
# EXPERIMENT_NOTES: High Throughput Screening for Foot and Mouth Disease Virus Antivirals; also: read-out not given here; nearly all actives have a fitted effect of over 45% in size
# CONDITION_PARAMETERS: FMDV antiviral cell-based qHTS; series mostly up to 57.9 µM
Among all 410,000 compounds or so, about 5,100 (1.2%) were called active. Another 8% or so got no clear call; they are omitted. The call rests on the fitted dose curve; tested in HEK293T cells. Shown is part of a subset that was picked to be rich in actives.
Field 'call' accepts active, inactive

# example entries with known answers
[
  {
    "MOLECULE": "Cc1ccc(S(=O)(=O)N(C)CC(=O)NCCc2c[nH]c3ccccc23)cc1",
    "LABEL_CLASS": "active"
  },
  {
    "MOLECULE": "O=C(CSc1nc2cc3c(cc2c(=O)n1CCC1=CCCCC1)OCO3)NCc1ccco1",
    "LABEL_CLASS": "inactive"
  },
  {
    "MOLECULE": "O=C(NCc1ccco1)C1(c2ccc(Cl)cc2)CCCC1",
    "LABEL_CLASS": "inactive"
  },
  {
    "MOLECULE": "COc1ccc(-n2c(=O)c(C)nc3cnc(N4CCOCC4)nc32)cc1",
    "LABEL_CLASS": "inactive"
  }
]

Q: Hey, what did the test say about CC(C)C1=CC2=CC[C@@H]3[C@](C)(CO)CCC[C@]3(C)C2CC1 (stereo not given in full) ?
Ans: inactive

Q: Entry to check: COC(=O)c1ccc(NC(=O)CCc2c(C)nn(-c3ccc(N4CCCC4)nn3)c2C)cc1
Ans: inactive

Q: Quick one: CS(=O)(=O)N1CCC2(CC1)CN(Cc1ccccc1)C2
Ans: inactive

Q: Moving on to the next molecule: CCOc1cc(C(=O)Nc2nnc3n2CCS3)cc(OCC)c1OCC
Ans: inactive

Q: Now this one: Cc1nc2cnc(N3CCNCC3)nc2n(CCc2ccccc2)c1=O
Ans: inactive

Q: Query COc1cc(C(=O)NNC(=O)c2ccc(S(=O)(=O)N3CCCCC3)cc2)cc(OC)c1OC next
Ans: inactive
